These entries and their values trace back to patent US5182387A.

Test system: multidrug resistant Plasmodium falciparum clone W-2
Test: antimalarial activity using multidrug resistant Plasmodium falciparum clone W-2
Type: cell-based
Details: read-out: IC50, ng/ml CLONE W-2
Procedure: Referring to Table 2, the antimalarial activity of compounds of formula 1 were tested using the multidrug resistant Plasmodium falciparum clone W-2. The methods for the growth of the malaria parasite, the testing of drugs for antimalarial effects and the clone are described in Science 242, 1301-1303 1988.
Readings of IC50 for the listed molecules

{"Molecule": "CN(CCCN1c2ccccc2CCc2ccccc21)CC(=O)N(C)CCCN1c2ccccc2CCc2ccccc21", "Unit abbreviation": "ng/mL", "Value prefix": "=", "IC50": 3570}
{"Molecule": "CN(CCCCN(C)CCCN1c2ccccc2CCc2ccccc21)CCCN1c2ccccc2CCc2ccccc21", "Unit abbreviation": "ng/mL", "Value prefix": "=", "IC50": 56}
{"Molecule": "c1ccc2c(c1)CCc1ccccc1N2CCCNCCCCNCCCN1c2ccccc2CCc2ccccc21", "Unit abbreviation": "ng/mL", "Value prefix": "=", "IC50": 110}
{"Molecule": "CN(CCCN(C)CCCN1c2ccccc2CCc2ccccc21)CCCN1c2ccccc2CCc2ccccc21", "Unit abbreviation": "ng/mL", "Value prefix": "=", "IC50": 385}
{"Molecule": "c1ccc2c(c1)CCc1ccccc1N2CCCN1CCN(CCCN2c3ccccc3CCc3ccccc32)CC1", "Unit abbreviation": "ng/mL", "Value prefix": ">", "IC50": 5000}
{"Molecule": "CNCCCN1c2ccccc2CCc2ccccc21 [desipramine, reference compound]", "Unit abbreviation": "ng/mL", "Value prefix": "=", "IC50": 300}
{"Molecule": "CN(CCCCCN(C)CCCN1c2ccccc2CCc2ccccc21)CCCN1c2ccccc2CCc2ccccc21", "Unit abbreviation": "ng/mL", "Value prefix": "=", "IC50": 180}
{"Molecule": "CN(CCCCCCN(C)CCCN1c2ccccc2CCc2ccccc21)CCCN1c2ccccc2CCc2ccccc21", "Unit abbreviation": "ng/mL", "Value prefix": "=", "IC50": 140}
{"Molecule": "CCN(CC)CCCC(C)Nc1ccnc2cc(Cl)ccc12 (stereo not shown) [chloroquine, reference compound]", "Unit abbreviation": "ng/mL", "Value prefix": "=", "IC50": 160}
{"Molecule": "CN(CCCN1c2ccccc2CCc2ccccc21)CCN(C)CCCN1c2ccccc2CCc2ccccc21", "Unit abbreviation": "ng/mL", "Value prefix": "=", "IC50": 1510}
